Molecular target: human GPR119 (Homo sapiens, UniProt Q8TDV5)
Construct: host or cells: U2OS
Sequence (Q8TDV5 whole entry): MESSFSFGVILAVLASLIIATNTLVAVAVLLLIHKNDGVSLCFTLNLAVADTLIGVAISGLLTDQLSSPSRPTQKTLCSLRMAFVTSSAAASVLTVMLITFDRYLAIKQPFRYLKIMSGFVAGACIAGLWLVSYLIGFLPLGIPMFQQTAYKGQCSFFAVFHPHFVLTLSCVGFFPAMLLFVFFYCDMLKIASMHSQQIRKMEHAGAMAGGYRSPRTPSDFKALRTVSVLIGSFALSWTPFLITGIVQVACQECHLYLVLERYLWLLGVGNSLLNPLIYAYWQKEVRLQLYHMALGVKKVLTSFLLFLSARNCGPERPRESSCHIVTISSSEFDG
Sequence (P32121 whole entry partner): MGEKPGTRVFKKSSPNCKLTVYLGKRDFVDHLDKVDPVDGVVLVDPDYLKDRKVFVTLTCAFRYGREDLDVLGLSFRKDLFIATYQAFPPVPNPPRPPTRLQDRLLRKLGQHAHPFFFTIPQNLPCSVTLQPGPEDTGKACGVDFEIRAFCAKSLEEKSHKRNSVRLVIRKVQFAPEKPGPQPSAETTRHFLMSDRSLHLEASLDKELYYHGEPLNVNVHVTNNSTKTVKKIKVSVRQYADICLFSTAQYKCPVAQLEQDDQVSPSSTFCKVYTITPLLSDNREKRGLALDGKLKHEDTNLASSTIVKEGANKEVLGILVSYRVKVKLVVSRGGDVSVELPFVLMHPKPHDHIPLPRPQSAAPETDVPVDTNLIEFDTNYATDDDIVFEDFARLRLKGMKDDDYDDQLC
Assay: Beta-arrestin functional assay (DiscoverX PathHunter U2OS hGPR119 β-arrestin cells)
Assay type: cell-based
Settings: U2OS hGPR119 β-arrestin cells, 90 minute incubation; one line per run; read-out: Human B-arrestin Functional EC50
Protocol: GPR119 agonist activity was also determined with a cell-based assay utilizing DiscoverX PathHunter β-arrestin cell assay technology and their U2OS hGPR119 β-arrestin cell line (DiscoverX Cat #93-0356C3). In this assay, agonist activation is determined by measuring agonist-induced interaction of β-arrestin with activated GPR119. A small, 42 amino acid enzyme fragment, called ProLink was appended to the C-terminus of GPR119. […]
READOUT_NAME: EC50 (nM)

compound="Cc1c(O[C@H]2CCN(C(=O)OC3(C)CC3)C[C@H]2F)ncnc1N1Cc2cnn(C)c2C1 (racemic) [Example 7]" result_units=nM quantitative_result=23

I = Cc1c(O[C@H]2CCN(C(=O)OC(C)(C)C)C[C@H]2F)ncnc1N1Cc2cnn(C)c2C1 (racemic) [Example 6]
II = Cc1c(O[C@H]2[C@@H]3COC[C@H]2CN(C(=O)OC(C)(C)C)C3)ncnc1N1Cc2cnn(C)c2C1 [Example 9]
## Input Sorting by EC50 in descending order, would I or II appear first? Your choice should be expressed through its label.
## Output II
(II: 56 nM, I: 19 nM)
